Target: TLR9 (Homo sapiens)
Construct: expressed in transfected cells; host or cells: HEK293
Sequence (Q9NR96 26-1032): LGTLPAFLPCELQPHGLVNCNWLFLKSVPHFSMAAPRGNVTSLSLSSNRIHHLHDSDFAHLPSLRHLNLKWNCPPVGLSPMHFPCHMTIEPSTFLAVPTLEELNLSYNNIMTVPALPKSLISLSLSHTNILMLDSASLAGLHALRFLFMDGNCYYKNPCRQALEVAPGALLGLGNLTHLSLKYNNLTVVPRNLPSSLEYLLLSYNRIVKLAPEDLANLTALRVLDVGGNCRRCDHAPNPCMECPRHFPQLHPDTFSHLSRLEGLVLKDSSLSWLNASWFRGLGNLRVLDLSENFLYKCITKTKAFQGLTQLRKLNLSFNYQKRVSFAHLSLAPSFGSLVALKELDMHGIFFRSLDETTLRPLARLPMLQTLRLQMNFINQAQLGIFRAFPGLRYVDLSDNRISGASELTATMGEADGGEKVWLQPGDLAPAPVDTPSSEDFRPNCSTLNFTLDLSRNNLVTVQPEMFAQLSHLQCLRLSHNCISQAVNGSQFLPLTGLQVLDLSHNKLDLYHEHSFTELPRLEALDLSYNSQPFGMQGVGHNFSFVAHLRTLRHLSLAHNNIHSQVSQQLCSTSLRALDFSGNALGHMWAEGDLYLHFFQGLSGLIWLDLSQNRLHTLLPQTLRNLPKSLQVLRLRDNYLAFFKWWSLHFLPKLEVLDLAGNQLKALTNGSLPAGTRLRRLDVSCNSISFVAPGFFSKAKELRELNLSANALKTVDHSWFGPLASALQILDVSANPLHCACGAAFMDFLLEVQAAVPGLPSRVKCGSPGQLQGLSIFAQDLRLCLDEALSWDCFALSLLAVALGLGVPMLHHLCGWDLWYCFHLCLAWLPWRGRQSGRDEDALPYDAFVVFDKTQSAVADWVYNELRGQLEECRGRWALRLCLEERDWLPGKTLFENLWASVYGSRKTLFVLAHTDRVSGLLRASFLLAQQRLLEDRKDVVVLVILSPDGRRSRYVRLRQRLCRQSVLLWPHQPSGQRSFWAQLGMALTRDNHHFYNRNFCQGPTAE
Experiment: TLR9 screening of (+)-morphinan library, SEAP reporter in HEK293 cells expressing TLR9
Assay type: cell-based
Conditions: HEK293, read-out: % Inhibition (mean), 100 nM; activator ODN2006
Please mark 1.0 if the recorded inhibition at 0.1 µM is equal to or greater than 20%, and 0.0 if it falls below.

stdin: For this compound, is measured inhibition at 0.1 µM 20% or higher? `C=CCN1CC[C@@]23c4c5ccc(OC)c4O[C@@H]2C(=O)CC[C@]3(O)[C@@H]1C5`
stdout: 0.0

stdin: For this compound, is measured inhibition at 0.1 µM 20% or higher? `COC1=CC=C2[C@@H]3Cc4ccc(OC)c5c4[C@]2(CCN3C)[C@@H]1O5`
stdout: 0.0

stdin: For this compound, is measured inhibition at 0.1 µM 20% or higher? `COc1ccc2c3c1O[C@@H]1C(=O)CC[C@@H]4[C@H](C2)N(Cc2ccccc2)CC[C@@]314`
stdout: 0.0

stdin: For this compound, is measured inhibition at 0.1 µM 20% or higher? COc1ccc2c3c1O[C@@H]1C(NC(C)=O)CC[C@@H]4[C@H](C2)N(C)CC[C@@]314 (some centres unmarked)
stdout: 0.0

stdin: For this compound, is measured inhibition at 0.1 µM 20% or higher? `COc1ccc2c3c1O[C@@H]1[C@@H]4CCC5(O4)[C@H](C2)N(CC2CC2)CC[C@@]315`
stdout: 1.0

stdin: For this compound, is measured inhibition at 0.1 µM 20% or higher? NC1CC[C@]2(O)[C@@H]3Cc4ccc(O)c5c4[C@]2(CCN3CC2CC2)[C@@H]1O5 (some centres unmarked)
stdout: 1.0
